B1: CPEB3 Ribozyme (parent)
chain: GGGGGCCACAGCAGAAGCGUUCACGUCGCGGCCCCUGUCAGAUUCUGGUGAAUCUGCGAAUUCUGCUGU

# Variants of: B1
# PROTOCOL_TEXT: self-cleavage, relative activity (ratio to wild type); higher = more cleavage; co-transcriptional
EXPERIMENTAL_ENDPOINT: self-cleavage
Please give the numeric answer without any surrounding text.

// solved cases for self-cleavage follow
> print(dat)
                              sequence.data  measurement
1  GGGGGCCACAUCAGAAGCGUUCACUUCGCGGCCCCUGUCAGAUUCUGGUGAAUCUGCGAAUUCUGCUGU [G11U G25U]        0.136
2  GGGGGCCACAGCAGAAGCGUUCACGUCGCGGCACCUGUCAGAUUCUGGUGAAUCUGCGAAUUCGGCUGU [C33A U64G]        0.672
3  GGGGGCCACAGCAGAAGCGUUCACGUCGCGGCUUCUGUCAGAUUCUGGUGAAUCUGCGAAUUCUGCUGU [C33U C34U]        0.825
4  GGGGCCCACAGCAGAAGCGUUCACGUCGCGGCCCCUGUCAGAUUCUGGUGAAUCUGCGAAUUCUGCUGG [G5C U69G]        0.437
5  GGGGGCCACAGCAGAAGCGUUAACGUCGCGGCCCCUGUCAGCUUCUGGUGAAUCUGCGAAUUCUGCUGU [C22A A42C]        0.251

Consider the variant GGGGGCUACAGCAGAAGCGUUCACGUCGCGGCCCCUGUCAGAUUCUGGUGAAUCUGCGAAUUCCGCUGU [C7U U64C] . State its measured self-cleavage. 0.794

Consider the variant GGGGGCAACAGCAGAAGCGUUCACGUCGCGGCCCCUGUCAGAUUCUGGUGAAUCAGCGAAUUCUGCUGU [C7A U55A] . State its measured self-cleavage. 0.333

Consider the variant GGGGGCCACAGCAGAAGCGUUCACGUCGCGGCCACUGUCAAAUUCUGGUGAAUCUGCGAAUUCUGCUGU [C34A G41A] . State its measured self-cleavage. 0.341
